# Test system: A498
# Experiment notes: NCI tumour cell line growth inhibition, 48 h
Activity calls are given as the source filed them. Rule as the data show it: active = GI50 up to about 1.1 µM and inactive = higher.
Choose the fitting class; nothing outside active, inactive is accepted.

Status in this test for CC(=O)OC1COC(n2ccc3cc(Br)c([N+](=O)[O-])cc32)C(OC(C)=O)C1OC(C)=O (stereo not drawn) ? inactive

Dear all, I need the recorded test outcome for CSc1nc(C)cc(Nc2ccc(O)c(CN3CCOCC3)c2)n1 , thank you. inactive

Returns: the outcome recorded for NCCCNOCCCN in this assay. inactive

Can you look up the reported call for O=C1C(=O)N(c2cc(Cl)ccc2Cl)C(=O)C(=O)C1c1nc2ccccc2s1 for me? inactive

Recorded call for Cc1ccc(S(=O)(=O)N2CCSCCSCCSCCSCC2)cc1 ? inactive

Each compound tested received a call. Report the one for S=c1sc2sc(=S)sc2s1 . inactive

Recorded test call requested for CCOc1ccccc1/N=N/C1C(=O)N(C(=O)CC(=O)Nc2ccccc2OC)N=C1C (stereo not drawn) inactive

For CCOC(=O)C1([Se]c2ccccc2)CCCC1=O (stereo not drawn) , which call appears in the assay record? inactive

Assay result, entry COC1=C(OC)CCC(/C(C#N)=C/c2ccc(OC)c(OC)c2)=C1 — outcome? inactive

Would you mind telling me which call this test gave C[C@H]1CCC2C(OC(=O)[C@@H]2CN(C)C)[C@]2(C)C(=O)C=CC12O (stereo partly drawn) ? inactive

Outcome? C=C(C#N)C1OCC2OC(C)(C)OC21 (stereo not drawn) inactive

Could you please tell me the result logged for S=C(S)NCC1CCC(CNC(=S)S)CC1 (stereo not drawn) in this assay? inactive

Per the records of this test, what outcome belongs to CC1(C)COC(c2ccc(C(F)(F)F)cc2C(O)c2ccc3ccccc3c2)=N1 (stereo not drawn) ? inactive

Lab log entry: Cc1ccc(/N=c2/oc3c(ccc4ccccc43)nc2Nc2ccc(C)cc2)cc1 — outcome as called in the assay? inactive

Given Nc1ccc([As](=O)(O)O)cc1 [ARSANILIC ACID] , state the outcome it received in this test. inactive

Hi team, can someone confirm the assay call for Cc1cc2nc(N3C(=O)/C(=C/c4ccccc4S)N=C3c3ccccc3)sc2cc1C ? inactive

Could you kindly confirm the outcome this assay logged for COC(=O)Nc1nc2cc(C(=O)c3cccs3)ccc2[nH]1 [NOCODAZOLE] ? active

Answer briefly: the call reported for CSc1nc(SC)c2c(C)cn(Cc3ccccc3)c2n1 in this assay. inactive

For COc1ccc(/N=C2\C(=S)N(c3ccc(OC)cc3)/C(=N/S(=O)(=O)c3ccccc3)N2c2ccccc2)cc1 , which call appears in the assay record? inactive

How was COc1cc(C(CN)N(C)C)cc(OC)c1OC (stereo not drawn) classified in this test? inactive

Answer briefly: the call reported for CC(SC1=CC(=O)c2c(Cl)ccc(O)c2C1=O)C(=O)O (stereo not drawn) in this assay. inactive

Short answer needed: outcome of this test for CC(=O)Oc1ccc(OC(Oc2ccccc2)c2ccccc2)cc1 (stereo not drawn) ? inactive

Lab log entry: O=[N+]([O-])c1ccc(Cl)cc1-n1nc(-c2ccccc2)cc1-c1ccccc1 — outcome as called in the assay? inactive

Origin of measurements: ChEMBL document CHEMBL1201862
